viability at 28.5 h, 10 µM: recorded values
# measurement.protocol: in vitro
# experimental.parameters: human, hela cells, % viability

| compound | viability at 28.5 h, 10 µM [%] |
| --- | --- |
| COCC(=O)N1CCN2C(=O)c3cc(-c4ccccc4F)ccc3NC(=O)[C@H]2C1 [CBK289587] | 82.4 |
| COCc1cc(CN2CCN(C)CC2)c(O)c2ncccc12 [CBK263546] | 85.1 |
| CC(NC(=O)C1CC=CCC1C(=O)O)C1CC2CCC1C2 (stereo not drawn) [CBK027112] | 114 |
| Cc1ccc(-n2c(SCC(=O)NC(C)Cc3ccccc3)nc3sc4c(c3c2=O)CC(C)(C)OC4)cc1 (stereo not drawn) [CBK267714] | 94.7 |
| O=C(C1CC1)N1CCC(Cn2nc(-c3ccccc3)ccc2=O)CC1 [CBK284115] | 89.7 |
| Cc1ccc(S(=O)(=O)Nc2ccsc2C(=O)N2CCOCC2)cc1[N+](=O)[O-] [CBK004612] | 81.7 |
| COc1ccc(C(=O)C2=C(O)C(=O)N(CCN(C)C)C2c2ccncc2)c(C)c1 (stereo not drawn) [CBK264867] | 92.5 |
| CC1CN(C(=O)c2ncoc2-c2ccc(F)cc2)CC(C)O1 (stereo not drawn) [CBK282379] | 90 |
| O=S(=O)(Nc1cccc(Cl)c1Cl)c1ccc(Cl)c(Cl)c1 [CBK017446] | 79.2 |

----------
# measurement.protocol: in vitro
# experimental.parameters: human, hela cells, % viability
The compounds listed here are annotated with their viability at 28.5 h, 10 µM.

| compound | viability at 28.5 h, 10 µM, % |
| --- | --- |
| Cn1c(=O)c2c(nc(CN3CCN(C(=O)c4ccco4)CC3)n2Cc2ccccc2)n(C)c1=O | 93 |
| CN(C)CCNC(=O)Cn1c(-c2ccc(F)cc2)cc2cccnc21 | 97.7 |
| O=C(Cc1c[nH]c2ccccc12)N1CCC2(CCCN(C(=O)c3cscn3)C2)C1 (centres unmarked) | 99.1 |
| O=C(CC1CCCCC1)Nc1ccc(Cl)nc1 | 83.5 |
| CN(Cc1ccc(Br)cc1)C(=O)CNS(=O)(=O)c1cnn(C)c1 | 82.5 |
| Cc1ncsc1CCOc1cccc(C(F)(F)F)n1 | 117 |
| c1cc(OCc2cccs2)cc(N2CCNCC2)c1 [CBK022557F] | 89.3 |
| c1ccc(CCN2CCC(N3CCOCC3)CC2)cc1 | 85.2 |
| O=C(NCCCc1ccccn1)c1cc2ccc(F)cc2[nH]1 | 84.4 |
| COc1cccc(OC)c1OCCN1CCC(NC(=O)Nc2ccc(Cl)cn2)CC1 | 94.4 |
| CCN1CCN(c2ccc(NS(=O)(=O)c3ccccc3)c3ccccc23)CC1 [CBK200011C] | 88.3 |
| Cc1ccc(S(=O)(=O)N(C)c2ccnc(N3CCNCC3)n2)cc1 | 107 |
| CC(C)CNc1nc2c(c(=O)n(Cc3ccccc3)c(=O)n2C)n1Cc1ccccc1 | 81.7 |
| c1ccc2nc(N3CCCC3)c(OC3CCOC3)nc2c1 (centres unmarked) | 99.4 |
| CN(Cc1ccncn1)C(=O)c1cn(CC2CCCO2)nn1 (centres unmarked) | 108 |
| CC(C)(C)C1CCc2c(sc(NC(=S)NC(=O)COc3ccccc3)c2C(N)=O)C1 (centres unmarked) | 107 |
| COCCN1C(=O)c2ccc(C(=O)c3ccc4c(c3)C(=O)N(CCOC)C4=O)cc2C1=O | 113 |
| O=C(NCc1ccco1)c1nn(-c2nc3ccccc3s2)c2ccccc12 | 97.4 |
| O=C(NCc1ccc2c(c1)OCO2)C1(c2ccccc2)CCCC1 | 89.8 |
| O=c1[nH]nc(-c2cccs2)n1-c1cccnc1 | 101 |

----------
# measurement.protocol: in vitro
# experimental.parameters: human, hela cells, % viability

| compound | viability at 28.5 h, 10 µM / % |
| --- | --- |
| O=C(O)CCC(=O)N1C[C@@H]2C[C@H](C1)c1c(-c3ccc(Cl)cc3)ccc(=O)n1C2 [CBK289190] | 85.9 |
| O=C(CCCN1CCN(CCCC(=O)c2ccc(F)cc2)CC1)c1ccc(F)cc1 [CBK025317C] | 89.1 |
| COc1cccc(-c2ccc3c(c2)[nH]c(=O)n3C2CCN(C(=O)c3ccc(C)c(OC)c3)CC2)c1 [CBK153141] | 102 |
| c1csc(COc2nccnc2-c2cc3ccccc3s2)c1 [CBK106786] | 99.5 |

----------
As shown below, each of these compounds has a reported viability at 28.5 h, 10 µM value.
# measurement.protocol: in vitro
# experimental.parameters: human, hela cells, % viability
readout: viability at 28.5 h, 10 µM (%)

| record.smiles | value.unit | test.value |
| --- | --- | --- |
| N#Cc1c(N)n(CCN)c2nc3ccccc3nc12 | % | 87.4 |
| CCOC(=O)c1ccc(NS(=O)(=O)c2cc(Cl)ccc2Cl)cc1 | % | 88.4 |
| O=S(=O)(NCc1ccco1)c1ccc2c(c1)Cc1ccccc1-2 | % | 95.5 |
| O=C(Cn1c([C@@H]2CCCO2)cc2cccnc21)N1CCCCCC1 | % | 88 |
| COc1cc(-c2nnc(CSCc3n[nH]c(=O)[nH]3)o2)cc(OC)c1OC | % | 99.5 |

----------
# measurement.protocol: in vitro
# experimental.parameters: human, hela cells, % viability
Attribute: viability at 28.5 h, 10 µM

| molecule | viability at 28.5 h, 10 µM / % |
| --- | --- |
| O=C1CCCCCN1CP(=O)(O)CCc1ccccc1 | 99.7 |
| C=CCO[C@@H]1C[C@H]2C(=O)N3CC[C@H](NC(=O)[C@@H](O)c4ccccc4)C[C@H]3C(=O)N2C1 | 89.6 |
| CCOC(=O)[C@H]1CN(C(=O)C(C)(C)NC(=O)OC(C)(C)C)C[C@@H]1c1cc2cc(C)ccc2o1 | 91.1 |
| COc1ccc([N+](=O)[O-])cc1Nc1nc(-c2ccccc2)nc2ccccc12 | 95.4 |
| Cc1ccc(-c2nc(C)c(C(=O)NCc3ccnc(-n4ccnc4)c3)s2)o1 | 105 |
| CS(=O)(=O)c1ccccc1C(=O)n1ccn(-c2ccc(Oc3ccccc3)cc2)c1=O | 80.8 |
| O=C(CCSc1ccccc1)Nc1ccc(Br)cc1F | 101 |
| COc1nn(C)c(CO)c1Cc1c(Cl)cccc1Cl [CBK092285T] | 94.2 |
| O=C(NCCc1ccccc1Cl)C1(Cc2ccc(-c3cccnc3)cc2)CCOCC1 | 95.5 |

----------
We begin with a simple list: items and their reported viability at 28.5 h, 10 µM.
# measurement.protocol: in vitro
# experimental.parameters: human, hela cells, % viability
readout: viability at 28.5 h, 10 µM (%)

| compound | value.unit | test.value |
| --- | --- | --- |
| O=C(O)CCSc1nnnn1-c1ccccc1 | % | 88.4 |
| O=C(c1cccs1)N1CCC(c2onc3c2CCCC3)CC1 | % | 93.3 |
| CCOC(=O)N1CCN(S(=O)(=O)c2coc(C)c2C(=O)OC)CC1 | % | 94.7 |
| Cn1c(=O)c2c(nc(CN3CCN(Cc4ccccc4)CC3)n2CCCc2ccccc2)n(C)c1=O | % | 90.9 |
| O=C(Nc1ccc(Br)cc1)C1CC(O)CN1C(=O)OCc1ccccc1 (stereo not shown) | % | 101 |
| Cc1nc2ccccn2c1CN1CCC(N2CCCC2)CC1 | % | 108 |
| Clc1ccc(Cn2ncc3c(NCc4cccnc4)ncnc32)cc1 | % | 94.9 |
| Clc1cccc(CNc2nccnc2-c2ccoc2)c1 | % | 105 |
| CN1CCN(CCC(=O)Nc2cccc(Cl)c2)CC1 [CBK070793C] | % | 108 |
| O=C(CNC(=O)c1ccccc1)N/N=C/c1ccc(C(=O)O)cc1 | % | 102 |

----------
# measurement.protocol: in vitro
# experimental.parameters: human, hela cells, % viability
readout: viability at 28.5 h, 10 µM (%)

| molecule | readout | test.value |
| --- | --- | --- |
| Cc1nc2ccc(C(=O)N(C)CCN(C)C)cn2c1N(C)C(=O)c1cccs1 | viability at 28.5 h, 10 µM | 120 |
| COc1ccc(-c2noc(CSc3nnc(-c4ccncc4)n3C)n2)cc1 | viability at 28.5 h, 10 µM | 96.8 |
| COC(=O)c1cc(-c2ccccc2)sc1NC(=O)c1cnccn1 | viability at 28.5 h, 10 µM | 93.5 |
| Cc1cc(OC(C)C(=O)N(Cc2cccs2)C2CCS(=O)(=O)C2)cc(C)c1Cl (stereo not drawn) | viability at 28.5 h, 10 µM | 84.3 |
| O=[N+]([O-])c1ccc(NCCCNS(=O)(=O)c2ccc(Cl)cc2)c(Cl)c1 | viability at 28.5 h, 10 µM | 90.6 |
| COc1ccccc1N1CC(C(=O)Nc2ccc(C(=O)O)cc2)CC1=O (stereo not drawn) | viability at 28.5 h, 10 µM | 84.9 |
| Cc1ccc(CN(CCCn2ccnc2)Cc2nc3ccccc3[nH]2)o1 | viability at 28.5 h, 10 µM | 90.9 |
| O=c1ccc2c(-c3cccc(C(F)(F)F)c3)ccnc2[nH]1 | viability at 28.5 h, 10 µM | 90.5 |
| O=C(Nc1cccc(F)c1)C(c1ccccc1)N1CCOCC1 (stereo not drawn) | viability at 28.5 h, 10 µM | 84.5 |
